biological target: Cannabinoid receptor 2 (Homo sapiens, UniProt P34972); experiment: Radioligand Binding Assay: HEK293 cells stably expressing human CB2 receptors were grown until a confluent monolayer was formed. Briefly, the cells were harvested and homogenized in TE buffer (50 mM Tris-HCl, 1 mM MgCl2, and 1 mM EDTA) using a polytron for 2x 10 second bursts in the presence of protease inhibitors, followed by centrifugation at 45,000xg for 20 minutes. The final membrane pellet was re-homogenized in storage buffer (50 mM Tris-HCl, 1 mM MgCl2, and 1 mM EDTA and 10% sucrose) and frozen at -78 C. until used. Saturation binding reactions were initiated by the addition of membrane preparation (protein concentration of 5 ug/well for human CB2) into wells of a deep well plate containing [3H]CP 55,940 (120 Ci/mmol, a nonselective CB agonist commercially available from Tocris) in assay buffer (50 mM Tris, 2.5 mM EDTA, 5 mM MgCl2, and 0.5 mg/mL fatty acid free BSA, pH 7.4). After 90 min incubation at 30 C., binding reaction was terminated by the addition of 300 uL/well of cold assay buffer.
Sequence (P34972 whole entry): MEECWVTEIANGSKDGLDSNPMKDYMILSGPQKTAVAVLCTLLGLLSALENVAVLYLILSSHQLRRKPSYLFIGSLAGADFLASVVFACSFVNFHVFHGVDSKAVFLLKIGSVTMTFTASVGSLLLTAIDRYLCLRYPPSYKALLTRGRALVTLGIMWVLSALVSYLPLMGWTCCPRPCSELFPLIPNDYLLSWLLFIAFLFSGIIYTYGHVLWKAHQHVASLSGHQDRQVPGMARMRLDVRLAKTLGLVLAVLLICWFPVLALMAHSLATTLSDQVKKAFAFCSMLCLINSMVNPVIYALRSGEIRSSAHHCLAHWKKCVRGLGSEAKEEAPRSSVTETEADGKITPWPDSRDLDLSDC
measured property: pKi
# pKi is unitless: minus log10 of the molar concentration; print number only

(Q) Fill blank: measured pKi of the compound CCCCn1nc(C(C)(C)C)s/c1=N\C(=O)c1cc(C(F)(F)F)ccc1ON=C(C)C is ____.
(A) 7.92
